compounds and their reported MBC
- Test system: Streptococcus sanguinis
- protocol: Antibacterial activity against Streptococcus sanguinis ATCC 10556 after 48 hrs by broth microdilution method
- Format: functional
- condition.label: ATCC 10556, 48 h
endpoint: MBC (µg/mL)

INSERT INTO results (structure_smiles_string, endpoint, op, reported) VALUES
  ('COc1ccc(/C=C/[C@@](C)(/C=C/c2ccc(O)cc2)CCC=C(C)C)cc1C=O', 'MBC', '=', 32),
  ('C=C[C@@](C)(/C=C/c1ccc(O)c(N)c1)CCC=C(C)C', 'MBC', '=', 32),
  ('COc1ccc(/C=C/[C@@](C)(/C=C/c2ccc(O)cc2)CCC=C(C)C)cc1', 'MBC', '=', 2),
  ('CCCOc1ccc(/C=C/[C@@](C)(/C=C/c2ccc(O)cc2)CCC=C(C)C)cc1Cl', 'MBC', '=', 32),
  ('CC(C)=CCCC(C)(/C=C/c1ccc(O)cc1)/C=C/c1ccc(O)cc1', 'MBC', '=', 1),
  ('C=C[C@@](C)(/C=C/c1ccc(OC)cc1)CCC=C(C)C', 'MBC', '>', 128),
  ('C=C[C@@](C)(/C=C/c1ccc(O)cc1)CC/C=C(/C)C=O', 'MBC', '=', 64),
  ('C=C[C@@](C)(/C=C/c1ccc(OC(C)=O)cc1)CCC=C(C)C', 'MBC', '=', 16),
  ('COc1ccc(/C=C/[C@](C)(/C=C/c2ccc(O)cc2)CCC=C(C)C)cc1', 'MBC', '=', 1),
  ('CC(C)=CCC[C@@](C)(/C=C/c1ccc(N)cc1)/C=C/c1ccc(O)cc1', 'MBC', '=', 4);
